Listed here are compounds together with their documented chromatographic logP.
test: experimental determination of log Pm/w using HMLC; format: physicochemical; settings: HMLC, pH 4, 40°C; read-out: log P (experimental log Pm/w) pH 4

- line notation: "c1cnc(N2CCN(Cc3ccc4c(c3)OCO4)CC2)nc1"
  measurement label: "chromatographic logP"
  value: 1.09

Sample "O=C1CCc2ccc(OCCCCN3CCN(c4cccc(Cl)c4Cl)CC3)cc2N1" — what was its chromatographic logP? 4.52

----------
experiment: experimental determination of log Pm/w using HMLC; assay type: physicochemical; conditions: HMLC, pH 3, 40°C; read-out: log P (experimental log Pm/w) pH 3
Each item that follows carries a reported chromatographic logP.
Output: the number by itself.

- line notation: "O=C1CCc2ccc(OCCCCN3CCN(c4cccc(Cl)c4Cl)CC3)cc2N1"
  chromatographic logP: 4.23

For "c1cnc(N2CCN(Cc3ccc4c(c3)OCO4)CC2)nc1" , what is its reported chromatographic logP? 0.86
